experiment: protein stability index of a GFP-peptide fusion (yeast GPS) (PSI 1-4); higher = more stable; sorted into four equal gates, so the index is relative within each strain
measurement-setup: san1∆
measurement-type: protein stability index
# respond with the number and nothing more

These solved cases illustrate the format of a correct answer.
> print(dat)
                             sequence  recorded.measurement
1            FIRLPHWPLNWYLILSI [RGR1]                  1.33
2  YNALFQQNIKFRRDFLL [YJL039C/NUP192]                   2.4

What value of measured protein stability index is listed for DGLLEYLEDIIGTANYK [SMC4] ?
2.6

What value of measured protein stability index is listed for HDEKTLAPSKHQPITSE [SIR4] ?
2.33

What value of measured protein stability index is listed for RAINKVLCTRLRLSNFF [SIR2] ?
1.18

What value of measured protein stability index is listed for KERLTKEAAAVAEGKSK [RPL8A] ?
3.31

What value of measured protein stability index is listed for LDKVINKELPINHTILG [RPN8] ?
1.67
